# assay-system: rP2Y6 (Rattus norvegicus, UniProt Q63371)
# Sequence (Q63371 whole entry): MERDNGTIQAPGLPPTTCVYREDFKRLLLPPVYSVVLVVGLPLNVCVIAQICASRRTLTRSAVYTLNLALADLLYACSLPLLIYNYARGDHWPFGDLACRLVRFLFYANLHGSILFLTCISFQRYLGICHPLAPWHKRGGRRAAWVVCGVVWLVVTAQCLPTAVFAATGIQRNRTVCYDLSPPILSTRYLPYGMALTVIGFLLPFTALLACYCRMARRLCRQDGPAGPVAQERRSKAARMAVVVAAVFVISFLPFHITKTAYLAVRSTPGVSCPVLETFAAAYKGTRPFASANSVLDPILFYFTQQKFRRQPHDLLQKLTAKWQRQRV
# assay-details: Inhibition of UDP binding at rP2Y6
# experimental-conditions: read-out: rP2Y6 % inhibition of UDP binding at 100 μM, n = 3, mean ± SEM
metric: inhibition at 100 µM (%)
Answers are plain numbers, in %.

Example results:
1. CCOP(=O)(CNC(=O)CCCNC(=O)[C@H]1O[C@@H](n2ccc(=O)[nH]c2=O)C(O)C1O)OCC (stereo in doubt) [Compound 7] = -3
2. CCOP(=O)(Cc1ccc(NC(=O)[C@H]2O[C@@H](n3ccc(=O)[nH]c3=O)C(O)C2O)cc1)OCC (stereo in doubt) [Compound 1] = -12
3. CCOP(=O)(OCC)C(NC(=O)CCCNC(=O)[C@H]1O[C@@H](n2cnc3c(N)ncnc32)C(O)C1O)P(=O)(OCC)OCC (stereo in doubt) [CC5] = -5
4. CCOP(=O)(Cc1ccc(NC(=O)CCCNC(=O)[C@H]2O[C@@H](n3ccc(=O)[nH]c3=O)C(O)C2O)cc1)OCC (stereo in doubt) [Compound 4] = -8
5. CCOP(=O)(CNC(=O)CNC(=O)[C@H]1O[C@@H](n2ccc(=O)[nH]c2=O)C(O)C1O)OCC (stereo in doubt) [Compound 5] = 17
6. CCOP(=O)(CNC(=O)CCNC(=O)[C@H]1O[C@@H](n2ccc(=O)[nH]c2=O)[C@H](O)[C@@H]1O)OCC [Compound 6] = -3

Reported inhibition at 100 µM, compound CCOP(=O)(Cc1ccc(NC(=O)CNC(=O)[C@H]2O[C@@H](n3ccc(=O)[nH]c3=O)C(O)C2O)cc1)OCC (stereo in doubt) [Compound 2] : ____ -10

---

# assay-system: rat ecto-5′-nucleotidase (Rattus norvegicus)
# Construct: Catalytically active recombinant soluble glutathione-S-transferase/ecto-5′-nucleotidase fusion protein; GST (glutathione-S-transferase); made in house; host or cells: insect cells, baculovirus system
# Sequence (P21588 29-551 limits assumed): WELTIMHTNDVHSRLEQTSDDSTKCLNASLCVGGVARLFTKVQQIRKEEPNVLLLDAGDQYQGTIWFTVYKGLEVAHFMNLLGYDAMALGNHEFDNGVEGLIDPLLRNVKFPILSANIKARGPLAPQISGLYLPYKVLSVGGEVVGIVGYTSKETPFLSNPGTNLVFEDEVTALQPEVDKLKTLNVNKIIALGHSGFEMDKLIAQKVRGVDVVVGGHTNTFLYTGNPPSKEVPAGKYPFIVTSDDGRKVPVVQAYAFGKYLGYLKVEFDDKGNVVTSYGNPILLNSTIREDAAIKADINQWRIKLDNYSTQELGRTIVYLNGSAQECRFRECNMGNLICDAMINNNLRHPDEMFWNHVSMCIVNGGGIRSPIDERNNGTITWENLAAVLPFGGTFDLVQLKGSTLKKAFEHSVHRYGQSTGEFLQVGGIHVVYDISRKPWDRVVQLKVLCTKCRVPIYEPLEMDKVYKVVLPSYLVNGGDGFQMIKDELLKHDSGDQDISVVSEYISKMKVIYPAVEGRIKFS
# assay-details: Ecto-5′-nucleotidase assay by capillary electrophoresis (CE)
# Format: biochemical
# experimental-conditions: CE method, read-out: Rat Ecto-5′-NT Ki [μM] ± SEM
For each entry below, report its Ki value.
Numbers only, in µM.

Please review the entries below; each comes with its answer.
1. O=C(CNC(=O)[C@H]1O[C@@H](n2ccc(=O)[nH]c2=O)C(O)C1O)Nc1ccc(CP(=O)(O)O)cc1 (stereo in doubt) = 6.47
2. O=C(O)CCC(NC(=O)CCNC(=O)[C@H]1O[C@@H](N2CCC(=O)NC2=O)[C@H](O)[C@@H]1O)C(=O)O (some centres unmarked) = 0.78
3. O=C(O)C[C@H](NC(=O)CCCNC(=O)[C@H]1O[C@@H](N2CCC(=O)NC2=O)[C@H](O)[C@@H]1O)C(=O)O = 0.18
4. Cc1cn([C@@H]2O[C@H](C(=O)NCCCC(=O)NC(CC(=O)O)C(=O)O)[C@@H](O)[C@H]2O)c(=O)[nH]c1=O (some centres unmarked) = 1.61

Turning now to a further compound:
Entry `O=C(O)CC[C@H](NC(=O)CNC(=O)[C@H]1O[C@@H](N2CCC(=O)NC2=O)[C@H](O)[C@@H]1O)C(=O)O` has what Ki? 34.3

---

# assay-system: human NTPDase2 (Homo sapiens)
# Sequence (Q9Y5L3 1-495): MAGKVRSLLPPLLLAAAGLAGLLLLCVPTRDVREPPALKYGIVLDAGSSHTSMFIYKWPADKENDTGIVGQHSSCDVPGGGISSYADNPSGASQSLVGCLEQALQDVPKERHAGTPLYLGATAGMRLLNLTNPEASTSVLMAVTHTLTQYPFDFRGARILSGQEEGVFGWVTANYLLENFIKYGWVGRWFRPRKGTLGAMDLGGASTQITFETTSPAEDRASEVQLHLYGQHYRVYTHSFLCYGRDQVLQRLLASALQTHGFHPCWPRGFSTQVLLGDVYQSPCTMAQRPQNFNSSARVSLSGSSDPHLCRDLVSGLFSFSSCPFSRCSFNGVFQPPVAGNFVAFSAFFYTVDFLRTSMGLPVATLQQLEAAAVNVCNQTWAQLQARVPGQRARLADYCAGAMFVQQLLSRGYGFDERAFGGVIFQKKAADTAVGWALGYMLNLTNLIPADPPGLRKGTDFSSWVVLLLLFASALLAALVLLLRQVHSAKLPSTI
# assay-details: NTPDase inhibition assay by capillary electrophoresis (CE), NTPDase2
# Format: biochemical
pKi: −log10 of the molar value.
metric: pKi

Would you please look over these solved cases?
1) CCOP(=O)(OCC)C(NC(=O)CNC(=O)[C@H]1O[C@@H](n2ccc(=O)[nH]c2=O)C(O)C1O)P(=O)(OCC)OCC (stereo in doubt) = ~3.78
2) CCOP(=O)(Cc1ccc(NC(=O)CNC(=O)[C@H]2O[C@@H](n3cnc4c(N)ncnc43)C(O)C2O)cc1)OCC (stereo in doubt) = < 3.70
3) CCOP(=O)(OCC)C(NC(=O)CCCNC(=O)[C@H]1O[C@@H](n2cnc3c(N)ncnc32)C(O)C1O)P(=O)(OCC)OCC (stereo in doubt) = < 3.70

Record pKi per entry; entries follow.
1. CCOP(=O)(Cc1ccc(NC(=O)[C@H]2O[C@@H](n3ccc(=O)[nH]c3=O)C(O)C2O)cc1)OCC (stereo in doubt)
2. CCOP(=O)(OCC)C(NC(=O)CCNC(=O)[C@H]1O[C@@H](n2ccc(=O)[nH]c2=O)C(O)C1O)P(=O)(OCC)OCC (stereo in doubt)
3. CCOP(=O)(OCC)C(NC(=O)CCCNC(=O)[C@H]1O[C@@H](n2ccc(=O)[nH]c2=O)C(O)C1O)P(=O)(OCC)OCC (stereo in doubt)

1: 3.93; 2: ~3.76; 3: ~3.78

Find the recorded pKi belonging to CCOP(=O)(OCC)C(NC(=O)CCNC(=O)[C@H]1O[C@@H](n2cnc3c(N)ncnc32)C(O)C1O)P(=O)(OCC)OCC (stereo in doubt) and report it. < 3.70
